Value source: ChEMBL document CHEMBL4513216

For each of the molecules below, state its INHIBITION.
Tested on: Plasmodium berghei
Assay: Screen against P. berghei liver stage (PbLuc), transformed with Luciferase, at 10uM
Assay type: functional, HepG2
Conditions: tested at 10 uM
The campaign covered roughly 69,000 compounds. About 8,600 (12%) showed an effect of 50% or more. The sample as a whole holds a higher share of strong results than the screen did.
Write the figure, then the unit, nothing else.

Prompt: What reported INHIBITION corresponds to COC[C@H]1CC[C@H]2[C@H](CCN2C(=O)c2ccncc2F)O1 on Plasmodium berghei?
Response: 8.52%

Prompt: What reported INHIBITION corresponds to CN(C)c1ncnc2c1CCN(S(=O)(=O)c1cccc(Cl)c1Cl)C2 on Plasmodium berghei?
Response: 42.7%

Prompt: What reported INHIBITION corresponds to CNC(=O)c1sccc1S(=O)(=O)NC on Plasmodium berghei?
Response: 46.6%
